assay: STM_H9_NormalizedViability: Cytotoxicity Assessment at 120 hours in the Stemina devTOX quickPredict H9 human embryonic stem cell (hESC)-based Assay (AID 2283784)
Inconclusive results are not listed. Activity calls are given as the source filed them. The calls were made as follows: active = hit-call score of the fitted dose curve at least 0.9, where 1 is the maximum; inconclusive = response in the unintended direction; inactive = score below 0.9.
Output constraint: value belongs to TRUE for active, FALSE for inactive

input: What outcome does the record of this test show for CCCCC(CC)COC(=O)CC(C(=O)OCC(CC)CCCC)S(=O)(=O)O (configuration not stated) ?
output: FALSE

input: # iterate: O=c1c(O)c(-c2ccc(O)c(O)c2)oc2cc(O)cc(O)c12
output: FALSE

input: # iterate: COc1ccc(S(=O)(=O)N2C(=O)[C@@](c3ccccc3OC)(N3C[C@H](O)C[C@H]3C(=O)N(C)C)c3cc(Cl)ccc32)c(OC)c1
output: FALSE

input: # iterate: Cc1cc(NC(=O)C(=O)O)cc(C)c1Oc1ccc(O)c2c1CCC2
output: FALSE

input: # iterate: C=CCOC(=O)c1ccccc1C(=O)OCC=C
output: FALSE

input: # iterate: CC(CO)OC(C)CO (configuration not stated) (tested in a mixture with another compound)
output: FALSE

input: # iterate: Nc1ccccc1N
output: TRUE
